Attribute: T/C
Test: Antitumor activity was assessed against TLX5 tumors in CBA/CA mouse by inoculation of 2 x 10e5 tumor cells through sc route and mean death of animals (treated/control) was reported at 20 mg/kg dose
Assay type: functional
Conditions: route subcutaneous

Some entries whose results are on file:
Cc1nc(C(N)=O)c2nnn(CCCl)c(=O)n12: 176%
CN(C)S(=O)(=O)c1ncn2c(=O)n(CCCl)nnc12: >385%
COc1ccc(CNS(=O)(=O)c2ncn3c(=O)n(CCCl)nnc23)cc1: 113%

Summary for this compound, NS(=O)(=O)c1ncn2c(=O)n(CCCl)nnc12 : T/C is >476%
